Biological target: T1, FZD5 CRD (Homo sapiens, UniProt Q13467)
T1 construct: K29-T156; GPI anchor signal (C); expressed in transfected cells; host or cells: CHO cells, lentiviral pLenti-puro
T1 sequence (Q13467 29-156): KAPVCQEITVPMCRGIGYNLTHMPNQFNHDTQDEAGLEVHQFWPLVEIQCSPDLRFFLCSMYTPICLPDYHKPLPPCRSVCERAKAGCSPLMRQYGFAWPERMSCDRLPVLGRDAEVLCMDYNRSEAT
Assay: Immunofluorescence of anti-FZD5 Fab binding to CHO cells overexpressing Frizzled CRD
Parameters: key: −: no binding; +: very weak binder; ++: weak binder; +++: good binder; ++++: very good binder
Measurement type: Immunofluorescence binding, Frizzled CRD overexpressed on CHO cells: FZD5

Fab-2913: anti-FZD5 Fab with antibody variable region Fv-2913; CDR SEQ ID NOs: 35, 36, 52, 91, 128, 165 (antibody, V domains shown) VH: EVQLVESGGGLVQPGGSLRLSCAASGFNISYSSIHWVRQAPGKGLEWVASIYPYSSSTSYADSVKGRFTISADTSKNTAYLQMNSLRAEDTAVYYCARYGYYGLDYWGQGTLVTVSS VL: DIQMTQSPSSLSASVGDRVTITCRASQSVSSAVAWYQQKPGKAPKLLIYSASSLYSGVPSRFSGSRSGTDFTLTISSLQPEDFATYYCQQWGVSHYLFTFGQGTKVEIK ... ++
